System: PC9
Assay: cell count fold change with erlotinib, miRNA mimic vs non-targeting control (log2 ratio); higher = more drug-tolerant survivors than NTC
Settings: erlotinib 1 µM; 72 h drug + 72 h drug-free recovery; perturbation: miRNA mimic
Label scheme for cell count fold change with erlotinib: lower than -1 is no (0), -1 and above is yes (1).

[
  {
    "sequence_entry": "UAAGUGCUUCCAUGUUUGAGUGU",
    "label_value": "yes (1)"
  }
]

Hi, just wondering whether CGGGGCAGCUCAGUACAGGAU shows cell count fold change with erlotinib of -1 or higher. yes (1)

Hi, just wondering whether GUGGGUACGGCCCAGUGGGGGG shows cell count fold change with erlotinib of -1 or higher. yes (1)

Hi, just wondering whether AAGUGAUCUAAAGGCCUACAU shows cell count fold change with erlotinib of -1 or higher. no (0)

Hi, just wondering whether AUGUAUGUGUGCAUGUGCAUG shows cell count fold change with erlotinib of -1 or higher. yes (1)

Hi, just wondering whether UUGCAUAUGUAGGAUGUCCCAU shows cell count fold change with erlotinib of -1 or higher. no (0)

Hi, just wondering whether GAGCCAGUUGGACAGGAGC shows cell count fold change with erlotinib of -1 or higher. no (0)

Hi, just wondering whether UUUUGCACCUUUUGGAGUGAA shows cell count fold change with erlotinib of -1 or higher. no (0)

Hi, just wondering whether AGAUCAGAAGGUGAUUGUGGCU shows cell count fold change with erlotinib of -1 or higher. yes (1)

###

Listing of recorded cell count fold change with erlotinib by entry.
System: PC9
Experiment: cell count fold change with erlotinib, miRNA mimic vs non-targeting control (log2 ratio); higher = more drug-tolerant survivors than NTC
Conditions: erlotinib 1 µM; 72 h drug + 72 h drug-free recovery; perturbation: miRNA mimic

// worked examples, cell count fold change with erlotinib included
[
  {
    "sequence_entry": "AGGGGUGCUAUCUGUGAUUGA",
    "measure_name": "cell count fold change with erlotinib",
    "result": 0.941
  },
  {
    "sequence_entry": "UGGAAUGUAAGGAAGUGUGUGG",
    "measure_name": "cell count fold change with erlotinib",
    "result": -0.89
  },
  {
    "sequence_entry": "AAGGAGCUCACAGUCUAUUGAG",
    "measure_name": "cell count fold change with erlotinib",
    "result": -1.13
  },
  {
    "sequence_entry": "AUGGUUCCGUCAAGCACCAUGG",
    "measure_name": "cell count fold change with erlotinib",
    "result": -2.16
  },
  {
    "sequence_entry": "GAUGAGCUCAUUGUAAUAUGAG",
    "measure_name": "cell count fold change with erlotinib",
    "result": -2.97
  },
  {
    "sequence_entry": "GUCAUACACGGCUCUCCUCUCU",
    "measure_name": "cell count fold change with erlotinib",
    "result": -5.7
  }
]

What value of cell count fold change with erlotinib has been reported for the following sequence? CUGGUUUCACAUGGUGGCUUAG -2.28

What value of cell count fold change with erlotinib has been reported for the following sequence? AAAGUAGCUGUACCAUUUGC -2.51

What value of cell count fold change with erlotinib has been reported for the following sequence? UGAGCCCUGUCCUCCCGCAG -3.68

What value of cell count fold change with erlotinib has been reported for the following sequence? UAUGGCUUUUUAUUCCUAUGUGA -1.4

###

System: PC9
Assay: cell count fold change with erlotinib, miRNA mimic vs non-targeting control (log2 ratio); higher = more drug-tolerant survivors than NTC
Details: erlotinib 1 µM; 72 h drug + 72 h drug-free recovery; perturbation: miRNA mimic
Classification field. Basis: cell count fold change with erlotinib. Definitions: bottom bin: < -2; middle bin: ≥ -2 and < -0.4; top bin: ≥ -0.4

[
  {
    "sequence_entry": "AAAGUGCUUCCUUUUAGAGGGU",
    "target_or_test_system": "PC9",
    "label_value": "top bin"
  },
  {
    "sequence_entry": "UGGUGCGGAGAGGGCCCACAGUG",
    "target_or_test_system": "PC9",
    "label_value": "middle bin"
  }
]

Classify this sequence: CAGGGAGGUGAAUGUGAU top bin

Classify this sequence: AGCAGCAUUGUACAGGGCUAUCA middle bin

Classify this sequence: UACUCAGGAGAGUGGCAAUCAC middle bin

Classify this sequence: AAGCCCUUACCCCAAAAAGCAU middle bin

Classify this sequence: AAGCAGCUGCCUCUGAGGC top bin

Classify this sequence: UUCUCAAGGAGGUGUCGUUUAU middle bin

Classify this sequence: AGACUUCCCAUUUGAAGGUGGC top bin

Classify this sequence: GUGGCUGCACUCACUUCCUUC top bin

Classify this sequence: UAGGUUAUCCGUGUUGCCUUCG bottom bin

Classify this sequence: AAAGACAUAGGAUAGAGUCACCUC top bin

Classify this sequence: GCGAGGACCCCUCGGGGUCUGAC top bin

###

System: PC9
Test: cell count fold change with erlotinib, miRNA mimic vs non-targeting control (log2 ratio); higher = more drug-tolerant survivors than NTC
Conditions: erlotinib 1 µM; 72 h drug + 72 h drug-free recovery; perturbation: miRNA mimic
Label scheme for cell count fold change with erlotinib: lower than -2 is 0 (no), -2 and above is 1 (yes).

[
  {
    "sequence_entry": "AGGUUGGGAUCGGUUGCAAUGCU",
    "label_value": "1 (yes)"
  }
]

Hi, just wondering whether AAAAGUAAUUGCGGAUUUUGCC shows cell count fold change with erlotinib of -2 or higher. 1 (yes)

Hi, just wondering whether CCCCCACAACCGCGCUUGACUAGCU shows cell count fold change with erlotinib of -2 or higher. 1 (yes)

Hi, just wondering whether AGGGCUUAGCUGCUUGUGAGCA shows cell count fold change with erlotinib of -2 or higher. 0 (no)

Hi, just wondering whether AGGUUGUCCGUGGUGAGUUCGCA shows cell count fold change with erlotinib of -2 or higher. 1 (yes)

Hi, just wondering whether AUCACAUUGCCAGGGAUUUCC shows cell count fold change with erlotinib of -2 or higher. 1 (yes)

Hi, just wondering whether GUAGAUUCUCCUUCUAUGAGUA shows cell count fold change with erlotinib of -2 or higher. 1 (yes)

Hi, just wondering whether CCUCUGAAAUUCAGUUCUUCAG shows cell count fold change with erlotinib of -2 or higher. 1 (yes)

Hi, just wondering whether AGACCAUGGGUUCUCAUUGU shows cell count fold change with erlotinib of -2 or higher. 1 (yes)

Hi, just wondering whether GUGCAUUGCUGUUGCAUUGC shows cell count fold change with erlotinib of -2 or higher. 0 (no)

Hi, just wondering whether AGAGCUUAGCUGAUUGGUGAAC shows cell count fold change with erlotinib of -2 or higher. 0 (no)

Hi, just wondering whether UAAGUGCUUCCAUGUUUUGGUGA shows cell count fold change with erlotinib of -2 or higher. 1 (yes)

###

Test system: PC9
Assay: cell count fold change with erlotinib, miRNA mimic vs non-targeting control (log2 ratio); higher = more drug-tolerant survivors than NTC
Conditions: erlotinib 1 µM; 72 h drug + 72 h drug-free recovery; perturbation: miRNA mimic
measure_name: cell count fold change with erlotinib

[
  {
    "sequence_entry": "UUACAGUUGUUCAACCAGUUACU",
    "target_or_test_system": "PC9",
    "measure_name": "cell count fold change with erlotinib",
    "result": -2.68
  }
]

What value of cell count fold change with erlotinib has been reported for the following sequence? GAAAGCGCUUCCCUUUGCUGGA -0.859

What value of cell count fold change with erlotinib has been reported for the following sequence? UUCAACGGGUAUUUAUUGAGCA -3.32

What value of cell count fold change with erlotinib has been reported for the following sequence? UAAGGUGCAUCUAGUGCAGUUAG -4.47

What value of cell count fold change with erlotinib has been reported for the following sequence? UUGGGAUCAUUUUGCAUCCAUA 0.519

What value of cell count fold change with erlotinib has been reported for the following sequence? UGAGUGCCGGUGCCUGCCCUG -2.45

###

System: PC9
Assay: cell count fold change with erlotinib, miRNA mimic vs non-targeting control (log2 ratio); higher = more drug-tolerant survivors than NTC
Conditions: erlotinib 1 µM; 72 h drug + 72 h drug-free recovery; perturbation: miRNA mimic
Label scheme for cell count fold change with erlotinib: lower than -0.5 is Not satisfied, -0.5 and above is Satisfied.

Here are 4 sequences together with their reported answers.
[
  {
    "sequence_entry": "UGAGGGGCAGAGAGCGAGACUUU",
    "label_value": "Satisfied"
  },
  {
    "sequence_entry": "UUCUCGAGGAAAGAAGCACUUUC",
    "label_value": "Not satisfied"
  },
  {
    "sequence_entry": "UCCCUGUUCGGGCGCCA",
    "label_value": "Not satisfied"
  },
  {
    "sequence_entry": "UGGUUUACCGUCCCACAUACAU",
    "label_value": "Satisfied"
  }
]

Hi, just wondering whether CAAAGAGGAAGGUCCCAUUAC shows cell count fold change with erlotinib of -0.5 or higher. Not satisfied

Hey, just so you know, these numbers are from the supplement of paper PMC4976141.
